System: TNF-α secretion from mouse splenocytes
Experiment: Con-A-induced TNF-α secretion from mouse splenocytes, ELISA
Assay type: cell-based
Conditions: Mus musculus, Splenocyte; 48 hours, 2.5-20 μM, mean of three experiments
parameter: IC50

smiles.entry	target.or.test.system	IC50
Fc1ccc([C@@H]2CCNC[C@H]2COc2ccc3c(c2)OCO3)cc1	TNF-α secretion from mouse splenocytes	2.5 µM

Q: // lookup IC50 | system=TNF-α secretion from mouse splenocytes | key= `C[C@@H]1C[C@H]2[C@@H]3CCC4=CC(=O)C=C[C@]4(C)[C@@]3(F)[C@@H](O)C[C@]2(C)[C@@]1(O)C(=O)CO`
Result: 0.6 µM
